EXPERIMENT_NOTES: Cytotoxicity against human MRC5 cells assessed as inhibition of cell proliferation incubated for 72 hrs by alamar blue assay
Assay type: toxicity, cell-based
SETTINGS: human, MRC5 cells
# IC50 at 72 h listing for each entry below
Respond with the bare value in µM.

C[n+]1cccc2c(N3C(=O)c4ccc5c6c(ccc(c46)C3=O)C(=O)N(c3cccc4c3ccc[n+]4C)C5=O)cccc21 : 0.28
CN1CCN(CCN2C(=O)c3ccc4c5c(ccc(c35)C2=O)C(=O)N(CCN2CCN(C)CC2)C4=O)CC1 : 6.78
O=C1c2ccc3c4c(ccc(c24)C(=O)N1c1ccc(N2CCOCC2)cc1)C(=O)N(c1ccc(N2CCOCC2)cc1)C3=O : 68.4

Please look at the following compound next.
Problem: What does the data say about its IC50 at 72 h? Entry: `CN1CCN(c2ccc(N3C(=O)c4ccc5c6c(ccc(c46)C3=O)C(=O)N(c3ccc(N4CCN(C)CC4)cc3)C5=O)cc2)CC1`
Solution: 22.3
